Measured pIC50 accompanies every entry in the list below.
test: NFkB reporter suppression in cystic fibrosis bronchial cells – cell-based, uHTS hits, panel, cytotoxicity readout, dose response (AID 624344); settings: CF bronchial epithelial cells, PAF-induced NFkB reporter inhibition; with PAF, mean of runs
pIC50: −log10 of the molar value.

{"Compound": "Cc1ccc(S(=O)(=O)CC(CN2CCCCC2)N2CCCCC2)cc1 (stereo not drawn)", "pIC50": 5.16}
{"Compound": "Cc1ccc(C(=O)c2cncc(Br)c2)cc1", "pIC50": 4.89}
{"Compound": "C=C(c1ccc2nc(NC(=O)OC)[nH]c2c1)c1cccs1", "pIC50": 5.30}

---

Quick list: IC50 per entry.
experiment: NFkB reporter suppression in cystic fibrosis bronchial cells – cell-based, uHTS hits, panel, cytotoxicity readout, dose response (AID 624344); conditions: CF bronchial epithelial cells, PAF-induced NFkB reporter inhibition; with PAF, mean of runs

{"Compound": "CN(C)CCCN(C(=O)CCOc1ccccc1)c1nc2ccc(F)cc2s1", "IC50": "2.53 µM"}
{"Compound": "Oc1ccc(C[C@H]2CNC(=S)N2CC2CCCN2C[C@H](Cc2ccc(O)cc2)N2C[C@H](Cc3ccc(O)cc3)N(CC3CCCCC3)C2=S)cc1 (stereo partly drawn)", "IC50": "10.3 µM"}
{"Compound": "O=C(Nc1cccc(Cl)c1)Nc1csc([N+](=O)[O-])c1", "IC50": "4.12 µM"}

---

assay: NFkB reporter suppression in cystic fibrosis bronchial cells – cell-based, uHTS hits, panel, cytotoxicity readout, dose response (AID 624344); details: CF bronchial epithelial cells, PAF-induced NFkB reporter inhibition; with PAF, mean of runs
Activity calls are given as the source filed them. No rule for the calls is given here.
Labels: 1 (yes) = active, 0 (no) = inactive

{"Molecule": "O=C(NNC(=S)Nc1cccc(C(F)(F)F)c1)c1cccc(Cl)c1", "Label Class": "1 (yes)"}
{"Molecule": "Cn1c(=O)c2c(nc(Oc3ccc4ccccc4c3)n2C)n(C)c1=O", "Label Class": "1 (yes)"}
{"Molecule": "COc1cccc(-c2nnc3n2N=C(C(C)(C)C)CS3)c1", "Label Class": "1 (yes)"}
{"Molecule": "O=S(=O)(c1cccc2cnccc12)N1CCCNCC1", "Label Class": "1 (yes)"}
{"Molecule": "Cc1ccc(-c2n[nH]c(=S)n2/N=C/c2ccncc2)cc1", "Label Class": "1 (yes)"}
{"Molecule": "Cc1ccc(-c2cc(C(=O)N/N=C/c3c(C)nn(-c4ccccc4)c3C)[nH]n2)cc1", "Label Class": "0 (no)"}
{"Molecule": "COc1ccc(S(=O)(=O)N2c3cc(C)ccc3OCC2C(C)(C)C)cc1 (configuration not stated)", "Label Class": "1 (yes)"}

---

experiment: NFkB reporter suppression in cystic fibrosis bronchial cells – cell-based, uHTS hits, panel, cytotoxicity readout, dose response (AID 624344); conditions: CF bronchial epithelial cells, PAF-induced NFkB reporter inhibition; with PAF, mean of runs
Active and inactive are the calls of the source. The rule behind the calls is not given here.
Outcomes: true (1) for active, false (0) for inactive

{"Compound": "CS(=O)(=O)c1ccc2nc(NC(=O)Nc3cccc(Cl)c3)sc2c1", "Label Class": "true (1)"}
{"Compound": "Cc1ccc(-c2cc(C(=O)N(C)Cc3cnn(C)c3C)c3cc(Br)ccc3n2)cc1", "Label Class": "true (1)"}
{"Compound": "COc1cc2c(c(OC)c1OC)-c1ccc(SC)c(=O)cc1C(NC(=O)C(F)(F)F)CC2 (configuration not stated)", "Label Class": "false (0)"}
{"Compound": "COc1ccc(-c2cn[nH]c2-c2ccc(OCc3ccc([N+](=O)[O-])cc3)cc2O)cc1", "Label Class": "true (1)"}
{"Compound": "CCN(CC(=O)Nc1ccc(OC)cc1)C(=O)c1cc(-c2cccs2)nn1-c1ccccc1", "Label Class": "true (1)"}
{"Compound": "CCCN(CC)c1ncnc2[nH]ncc12", "Label Class": "true (1)"}
{"Compound": "c1cc(-c2cnc3cccnn23)c2cccnc2c1", "Label Class": "true (1)"}
{"Compound": "O=C1/C(=C/c2cccnc2)CCc2c1[nH]c1ccccc21", "Label Class": "true (1)"}
{"Compound": "COc1ccc(NC(=O)Cn2ncn3nc(-c4ccc(OC)cc4)cc3c2=O)cc1", "Label Class": "true (1)"}
{"Compound": "Oc1ccc(Cl)cc1Cc1cc(Cl)ccc1O", "Label Class": "true (1)"}
{"Compound": "CCC1(O)CC2CN(CCc3c([nH]c4ccccc34)C(C(=O)OC)(c3cc4c(cc3OC)N(C=O)C3C(O)(C(=O)OC)C(OC(C)=O)C5(CC)C=CCN6CCC43C65)C2)C1 (configuration not stated)", "Label Class": "true (1)"}
{"Compound": "COc1ccc(-n2nnnc2C(CCc2ccccc2)N2CCC(n3c(=O)[nH]c4ccccc43)CC2)cc1 (configuration not stated)", "Label Class": "true (1)"}
{"Compound": "O=C(Nc1ccc([N+](=O)[O-])cc1)Nc1ccc(Cl)cc1F", "Label Class": "true (1)"}
{"Compound": "COc1ccc(-n2nc(C(=O)NCC(=O)Nc3cc(OC)c(OC)c(OC)c3)c3ccccc3c2=O)cc1OC", "Label Class": "true (1)"}
{"Compound": "CC1C(=O)N(Cc2cn(Cc3ccco3)nn2)CCS(=O)(=O)N1Cc1ccc(-c2ccccc2C(F)(F)F)cc1 (configuration not stated)", "Label Class": "true (1)"}
{"Compound": "Cc1ccc(-c2c(C#N)c(N)n3c(nc4ccccc43)c2C#N)cc1", "Label Class": "true (1)"}
{"Compound": "NS(=O)(=O)c1ccc(CCNc2nn3c(-c4cccc(OC(F)(F)F)c4)cnc3s2)cc1", "Label Class": "true (1)"}
{"Compound": "O=C(Nc1ccc2ccccc2c1)c1ccccc1O", "Label Class": "true (1)"}
{"Compound": "CC(C)CNC(=O)c1coc(=O)c(Br)c1", "Label Class": "true (1)"}
{"Compound": "O=c1[nH]c2ccccc2n1C1CCN(C(c2cc3ccccc3o2)c2nnnn2-c2ccc3c(c2)OCCO3)CC1 (configuration not stated)", "Label Class": "true (1)"}
{"Compound": "Cc1nn(-c2cccc(Cl)c2)c2nc(C(F)(F)F)[nH]c(=O)c12", "Label Class": "true (1)"}
{"Compound": "O=C(CSc1nc(C2CC2)nc2ccccc12)Nc1cccc(O)c1", "Label Class": "true (1)"}

Reference source for all entries: PubChem BioAssay AID624344
